Below, each entry is listed with its recorded pKd.
Biological target: GST-gag (HIV-1 gag polyprotein, strain LAI) (HIV-1 (LAI))
Experiment: filter
Details: 50 mM Tris pH 7.5, 140 mM KCl, 5 mM NaCl, 5 mM MgCl2, 37 C
Kindly note that pKd refers to -log10 of the concentration in mol/L and answer with the value alone.

GGGAAAAGCGAAUCAUACACAAGANNNNNNNNNNNNNNNNNNNNNNNNNNNNNNNNNNNNNNNNNNNNNNNNNNGCUCCGCCAGAGACCAACCGAGAA [SELEX B round 8 RNA pool]    8.96
GGGAAAAGCGAAUCAUACACAAGANNNNNNNNNNNNNNNNNNNNNNNNNNNNNNNNNNNNNNNNNNNNNNNNNNGCUCCGCCAGAGACCAACCGAGAA [SELEX B round 4 RNA pool]    8.07

Query :: Please report the measured pKd for GGGAAAAGCGAAUCAUACACAAGANNNNNNNNNNNNNNNNNNNNNNNNNNNNNNNNNNNNNNNNNNNNNNNNNNGCUCCGCCAGAGACCAACCGAGAA [SELEX B round 0 RNA pool]
Result :: 6.00
